Ki data for rat EP4 receptor (Rattus norvegicus) follow.

In the examples that follow, each entry is paired with its recorded Ki.
Substance smiles: COc1ccc2c(c1)cc(C(=O)N[C@@H](CCCNC(=O)OCc1ccccc1)C(=O)N[C@H]1CCC[C@H]1c1nnn[nH]1)n2C
Experimental system: rat EP4 receptor (Rattus norvegicus)
Ki: 0.29 nM
//
Substance smiles: CN(C)c1cccc(C(=O)N[C@@H](CCCNC(=O)OCc2ccccc2)C(=O)N[C@H]2CCC[C@H]2C(=O)O)c1
Experimental system: rat EP4 receptor (Rattus norvegicus)
Ki: 1.1 nM

Now for a further compound.
Input line: For the record Cn1c([C@@H]2CCC[C@@H]2NC(=O)[C@H](CCCNC(=O)OCc2ccccc2)NC(=O)c2cc3ccccc3n2C)n[nH]c1=S , what value of Ki is listed for rat EP4 receptor (Rattus norvegicus)?
Output line: 9.8 nM

====

# Experimental system: rat EP4 receptor (Rattus norvegicus, UniProt P43114)
# Construct: expressed in transfected cells; host or cells: HEK293
# Sequence (P43114 whole entry): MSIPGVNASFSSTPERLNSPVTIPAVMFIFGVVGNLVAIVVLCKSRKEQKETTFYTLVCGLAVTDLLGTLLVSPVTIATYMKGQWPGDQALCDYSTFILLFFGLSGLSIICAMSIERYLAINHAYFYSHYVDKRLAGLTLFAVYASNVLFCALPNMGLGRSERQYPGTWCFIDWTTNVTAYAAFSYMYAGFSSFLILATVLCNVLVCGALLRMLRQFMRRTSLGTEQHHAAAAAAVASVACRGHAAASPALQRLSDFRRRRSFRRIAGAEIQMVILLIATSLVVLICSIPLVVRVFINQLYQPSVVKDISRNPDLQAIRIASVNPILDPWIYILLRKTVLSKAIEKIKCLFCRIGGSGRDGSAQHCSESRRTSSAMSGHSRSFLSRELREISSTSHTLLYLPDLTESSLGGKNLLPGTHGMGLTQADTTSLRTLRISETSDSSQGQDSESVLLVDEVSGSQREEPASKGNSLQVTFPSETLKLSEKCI
# Assay summary: Evaluation test on rat EP4 receptor affinity ([3H]PGE2 binding assay)
# Conditions: rat EP4 expressed in HEK293 membrane fraction, [3H]PGE2 0.3 nM
Metric name: Ki (nM)
Express it in nM; write the number only.

Some entries whose results are on file:
Compound: Cc1cc(C(=O)N[C@@H](CCCNC(=O)OCc2ccccc2)C(=O)N[C@H]2CCC[C@H]2C(=O)O)n(C)c1 [Example 57]
Ki, nM: 0.72

Compound: Cn1c(C(=O)N[C@@H](CCCNC(=O)OCc2ccccc2)C(=O)N[C@H]2CCCC[C@H]2C(=O)O)cc2ccccc21 [Example 22]
Ki, nM: 0.53

Compound: COc1ccc2[nH]c(C(=O)N[C@@H](CCCNC(=O)OCc3ccccc3)C(=O)N[C@H]3CCC[C@H]3c3nnn[nH]3)cc2c1 [Example 164]
Ki, nM: 0.29

Compound: Cn1c(C(=O)N[C@@H](CCCNC(=O)OCc2ccccc2)C(=O)N[C@H]2CCC[C@H]2c2nnn[nH]2)cc2ccccc21 [Example 83]
Ki, nM: 0.52

Compound: Cn1ccc2c(C(=O)N[C@@H](CCCNC(=O)OCc3ccccc3)C(=O)N[C@H]3CCC[C@H]3C(=O)O)cccc21 [Example 50]
Ki, nM: 0.78

Kindly review the next compound as well.
Input line: May I ask what Ki has been recorded for Cn1c(C(=O)N[C@@H](CCCNC(=O)OCC2CCCCC2)C(=O)N[C@H]2CCC[C@H]2C(=O)O)cc2ccccc21 [Example 160] ?
Output line: 0.43

====

# solubility at 20 h per record follows
# Assay summary: Solubility test
# Assay type: physicochemical
# Conditions: pH 1.2, simulated gastric fluid, kinetic from dmso stock; first liquid for disintegration test of Japanese Pharmacopoeia, 25° C., shaking 20 hours

Substance smiles: CN(C)c1cccc(C(=O)N[C@@H](CCCNC(=O)OCc2ccccc2)C(=O)N[C@H]2CCC[C@H]2C(=O)O)c1
Recorded value: ≥ 53 µg/mL
--
Substance smiles: Cc1cc(C(=O)N[C@@H](CCCNC(=O)OCc2ccccc2)C(=O)N[C@H]2CCC[C@H]2C(=O)O)n(C)c1
Recorded value: ≥ 50 µg/mL
--
Substance smiles: O=C(/C=C/c1ccccc1O)N[C@@H](CCCNC(=O)OCc1ccccc1)C(=O)N[C@H]1CCC[C@H]1C(=O)O
Recorded value: ≥ 52 µg/mL

Then there is this compound:
Input line: I have this compound here, Cn1ccc2cccc(C(=O)N[C@@H](CCCNC(=O)OCc3ccccc3)C(=O)N[C@H]3CCC[C@H]3C(=O)O)c21 , and I need its recorded solubility at 20 h.
Output line: ≥ 53 µg/mL
